Test system: Wolbachia pipientis
Test: Anti-Wolbachia Cell-Based Screen
Type: functional
Parameters: scale not given: in the data most compounds retested in dose-response had high values
Settings: 5 µM
Hit rate of the full screen: of about 48,000 compounds, about 13,000 (27%) showed an effect of 50% or more. Some of the results follow.
RECORDED ENDPOINT: Percent Effect (%)

>>> print(df.to_string())
                                    molecule  result_number
 0  CCn1cc(S(=O)(=O)N2CCCCCC2c2cc(C)on2)cn1 (configuration not stated)          92.08
 1         O=C(c1cn(-c2ccccc2Cl)nn1)N1CCSCC1          139.5
 2  CCOC(=O)C1CCN(C(=O)CN2CCCC2c2cc(C)no2)CC1 (configuration not stated)         -7.861
 3  COc1cc(F)ccc1CC(=O)N1CC[C@H]2C(=O)NCCO[C@H]2C1         -55.09
 4  CCc1ccc(O)c(C(=O)N2CCN(CC(=O)N(C)C)CC2)c1          4.973
 5     O=C(c1cnn(-c2ccccc2F)c1)N1CCN(CCO)CC1         -7.046
 6  COc1cccc(CN(C)C(C)c2ccon2)c1OCCn1ccnc1 (configuration not stated)          6.714
 7     CCN1CCN(C(=O)c2cnn(-c3ccccc3Cl)c2)CC1         0.9462
 8  CC(C)OCCC1CCCCN1S(=O)(=O)c1cnn(C)c1 (configuration not stated)         -6.246
 9  CC(O)CN1CCN(C(=O)c2cnn(-c3ccc(Cl)cc3)c2)CC1 (configuration not stated)         -6.081
10      CN1CCN(C(=O)c2cnn(-c3ccccc3Cl)c2)CC1          84.01
11    CCOC1CCN(C(=O)c2cnn(-c3ccccc3Cl)c2)CC1         -5.801

----------
System: Wolbachia pipientis
Assay: Anti-Wolbachia Cell-Based Screen
Assay type: functional
Design: scale not given: in the data most compounds retested in dose-response had high values
Conditions: 5 µM
About 13,000 (27%) of roughly 48,000 compounds showed an effect of 50% or more. The list shows a part of the results.
RECORDED ENDPOINT: Percent Effect (%)

>>> df
                                    compound  unit_abbreviation  result_number
 0  COC(=O)N1CCCC(C(=O)N(C)C)C1 (configuration not stated)                  %          5.213
 1  CC(O)CN1CCC(CNCc2c[nH]nc2C(C)(C)C)CC1 (configuration not stated)                  %       -0.09307
 2  Cn1c(Cn2cccn2)nnc1C1CCCN(c2ccncc2F)C1 (configuration not stated)                  %          5.271
 3  Cc1ccc(-c2n[nH]cc2CNCC2CCc3nnc(C)n3C2)cc1 (configuration not stated)                  %         -17.97
 4  COc1ccc2[nH]c(CNc3cc(C4CCNCC4)nc(C)n3)cc2c1                  %        -0.5265
 5  CN(Cc1ccco1)[C@@H]1CN(C(=O)c2ccnnc2)[C@@H]2CCCO[C@H]12.O=C(O)C(F)(F)F                  %         0.1298
 6     Cc1nc(NCc2cccc(F)c2)cc(C2CCNCC2)n1.Cl                  %           92.9
 7  CC(=O)N1CCC(C(=O)N(C)[C@@H]2CCC[C@@H](N3CCCC3)[C@@H]2O)CC1                  %         -16.02
 8  CC(C)(C)c1n[nH]cc1CNCC1CCN(C2CC2)C1.Cl (configuration not stated)                  %          3.787
 9  Cn1ccnc1-c1ccc(NCC2COCCO2)nn1 (configuration not stated)                  %         -2.389
10           Fc1cccc(CNc2cncc(-n3cccn3)n2)c1                  %          9.755
11  Cc1nc(Cc2ccc(F)cc2)cc(C2COCCN2)n1.Cl (configuration not stated)                  %          104.2
12  Cc1cc(C(=O)N2CCNC(=O)CC2)c(C)n1CC(F)(F)F                  %         -3.477
13  Cc1cc(C)cc(C(=O)Nc2ccc(CC3CC(=O)NC3=O)cc2)c1 (configuration not stated)                  %         -7.063
14  CNc1cc(N2CCCC2CNCc2c[nH]nc2C(C)(C)C)ncn1 (configuration not stated)                  %         0.4855
15  CCCS(=O)(=O)N1C[C@H](N(C)Cc2ccco2)[C@@H]2OCCC[C@@H]21.O=C(O)C(F)(F)F                  %         -9.069
16  Cc1ccc(-c2cn3c(n2)CO[C@@H](CNCc2nccn2C)C3)cc1                  %         -11.82
17     Fc1ccc(-c2c[nH]c([C@@H]3COCCN3)n2)cc1                  %         -3.188
18  CCN1CCC(CNCc2c[nH]nc2C(C)(C)C)C1.Cl (configuration not stated)                  %          95.83
19  COCC(=O)N1C[C@H](N(C)Cc2cncnc2)[C@H]2OCCC[C@H]21                  %          102.5
20  Cc1nc(NCc2nccn2C)cc(C2COCCN2)n1 (configuration not stated)                  %          145.4
21  CCN(CC)[C@@H]1CN(C(=O)c2ccnnc2)[C@@H]2CCCO[C@H]12.O=C(O)C(F)(F)F                  %         -6.627

----------
Test system: Wolbachia pipientis
Assay: Anti-Wolbachia Cell-Based Screen
Type: functional
Set-up: scale not given: in the data most compounds retested in dose-response had high values
Details: 5 µM
About 13,000 (27%) of roughly 48,000 compounds showed an effect of 50% or more. The list shows a part of the results.
RECORDED ENDPOINT: Percent Effect

>>> print(df.to_string())
                                    molecule  recorded_endpoint    result
 0  Cc1n[nH]c(C2CN(CCNC3CCCCC3)CCO2)n1 (centres undefined)     Percent Effect    13.35%
 1  Cc1noc(CS(=O)(=O)CC(=O)NC(C)c2ccccc2)n1 (centres undefined)     Percent Effect  -0.1878%
 2  CCc1nsc(NC2CCCn3nc(CC)nc32)n1 (centres undefined)     Percent Effect   0.3299%
 3  Cn1cccc1-c1cc(C(=O)N2CC(c3cccnc3)C2)[nH]n1     Percent Effect   -4.055%
 4  CCN(C(c1cccnc1)c1cc(C)cc(C)c1)S(C)(=O)=O (centres undefined)     Percent Effect     1.72%
 5              COc1cc2cc(C(=O)O)n(C)c2cc1OC     Percent Effect   -4.689%
 6  CC(C)S(=O)(=O)N1CCCC(c2nnc(Cn3ccnc3)n2C)C1 (centres undefined)     Percent Effect   -6.159%
 7       COC(=O)N1CCC(c2nnc(Cn3ccnc3)n2C)CC1     Percent Effect    110.5%
 8        NC(=O)CC1CCN(c2ncnc3cccc(F)c23)CC1     Percent Effect   0.8232%
 9           CCOCC(C)(C)NC(=O)Nc1cc(F)ccc1OC     Percent Effect   -3.533%
10  CS(=O)(=O)N[C@@H]1COC[C@@H]2CN(Cc3ccoc3)C[C@@H]21     Percent Effect    104.1%
11  CS(=O)(=O)N[C@@H]1COC[C@@H]2CN(Cc3ccco3)C[C@@H]21     Percent Effect    121.7%
12                 COc1cc(C(F)(F)F)sc1C(=O)O     Percent Effect    103.8%
13  Cn1c(Cn2ccnc2)nnc1C1CCCN(C2CCCCC2)C1 (centres undefined)     Percent Effect    -3.14%
14  Cc1cc(C)nc(CNC(=O)C(c2cccnc2)N2CCOCC2)n1 (centres undefined)     Percent Effect    12.66%
15  CC(C)Cc1nc(NC(=O)c2cc(-c3cccnc3)n[nH]2)n[nH]1     Percent Effect    127.5%
16         Cn1ccnc1CN1CCN(c2ccc(C#N)cc2F)CC1     Percent Effect    2.933%
17  CC(C)COCC(NC(=O)c1cccnc1)c1ccco1 (centres undefined)     Percent Effect  -0.4808%
18             COc1cc(C)sc1C(=O)NCCNc1ccccc1     Percent Effect   -4.959%
19     O=C(c1ccno1)N1CC(c2nc(-c3ccco3)no2)C1     Percent Effect   0.6255%
20      CN(CCS(=O)(=O)c1cc(Cl)ccc1Cl)CC(N)=O     Percent Effect    6.108%
21   CC(C)OC(=O)N1CCC(c2nnc(Cn3ccnc3)n2C)CC1     Percent Effect    96.34%
22  COc1nc(C)c(C(=O)N2CCc3[nH]nc(C4CCCC4)c3C2)s1     Percent Effect  -0.6209%
23  CC(C)C[C@H](NC(=O)c1cc(-c2cccn2C)n[nH]1)C(N)=O     Percent Effect    6.399%
